System: OKP-GS (renal cell carcinoma)
assayDetails: MTT cell proliferation assay, OKP-GS
Type: cell-based
experimentalContext: 72 h of exposition, read-out: Anti-proliferative activity IC50, OKP-GS
parameter: IC50 (µM)

Solved cases (2 shown):
CNC(=O)c1cc(Oc2ccc(NC(=O)c3cccc(C(=O)Nc4cc(-n5cnc(C)c5)cc(C(F)(F)F)c4)c3)cc2)ccn1    26.5
CNC(=O)c1cc(Oc2ccc(NC(=O)c3ccc(C(=O)Nc4cccc(C(F)(F)F)c4)cc3)cc2)ccn1    34.4

I: Cc1cn(-c2cc(NC(=O)c3cccc(C(=O)Nc4cc([N+](=O)[O-])ccc4C)c3)cc(C(F)(F)F)c2)cn1
II: CS(=O)(=O)CCNCc1ccc(-c2ccc3ncnc(Nc4ccc(OCc5cccc(F)c5)c(Cl)c4)c3c2)o1 [Lapatinib, reference compound]
## Input Task for the reader: decide whether I or II has the larger IC50. Returns: label corresponding to the selected item.
## Output I
